Test system: SK-LU-1 (Lung Adenocarcinoma);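 note: after 72 h of two-drug dosing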
Assay Method Text: Bliss excess, mean over the matrix (fraction); higher = more synergy
Metric: Bliss excess
A bare number is all that is needed in reply.

COc1nnc2ccc(N3CCC(c4ccc(OCCN5CCN(C)C(=O)[C@H]5C)cc4)CC3)nn12 [AZD5153] + CC1(C)CCC(CN2CCN(c3ccc(C(=O)NS(=O)(=O)c4ccc(NCC5CCOCC5)c([N+](=O)[O-])c4)c(Oc4cnc5[nH]ccc5c4)c3)CC2)=C(c2ccc(Cl)cc2)C1 [Venetoclax] (first compound max 1 µM, 7x7, partner max 1 µM)
-0.118

Turning now to a further compound:
The recorded Bliss excess for CN(C)CCCOc1ccc(-c2ccc3ncc4c(c3c2)n(C2CCOCC2)c(=O)n4C)cn1 [AZD0156] + CCN(CCO)CCCOc1ccc2c(Nc3cc(CC(=O)Nc4cccc(F)c4)[nH]n3)ncnc2c1 [AZD2811] (first compound max 1 µM, 7x7, partner max 1 µM) is -0.0518

###

System: A4-Fuk (B-Lymphoblastic Leukemia)
Assay Method Text: combination Emax (second highest fraction inhibited in the dose matrix, 72 h); higher = more inhibition; extreme values may be limits of the assay
Metric: combination Emax
Lab note: jot the number down without any unit.

N#Cc1cnc(Nc2cc(NC[C@H]3CNCCO3)c(C(F)(F)F)cn2)cn1 [SRA737] + CCc1c2c(nc3ccc(O)cc13)-c1cc3c(c(=O)n1C2)COC(=O)[C@]3(O)CC [SN-38] (first compound max 10 µM, 7x7, partner max 0.3 µM)
0.974
O=C(c1cc(Cc2n[nH]c(=O)c3ccccc23)ccc1F)N1CCN(C(=O)C2CC2)CC1 [Olaparib] + Cc1c2c(nn1C)CSCc1cc(n(C)n1)CSc1cc(c3ccccc3c1)OCCCc1c(C(=O)O)n(C)c3c-2c(Cl)ccc13 [AZD5991] (first compound max 10 µM, 7x7, partner max 1 µM)
1
COc1nnc2ccc(N3CCC(c4ccc(OCCN5CCN(C)C(=O)[C@H]5C)cc4)CC3)nn12 [AZD5153] + C=CCn1c(=O)c2cnc(Nc3ccc(N4CCN(C)CC4)cc3)nc2n1-c1cccc(C(C)(C)O)n1 [AZD1775] (first compound max 1 µM, partner max 1 µM)
0.967

// next item, combination Emax requested
Cc1nc(-c2cn3c(n2)-c2ccc(-c4cnn(C(C)(C)C(N)=O)c4)cc2OCC3)n(C(C)C)n1 [Taselisib] + O=C(Nc1ccc2[nH]nc(-c3ccncc3)c2c1)[C@@H]1CCN(CC(=O)N2CCN(c3ccc(-c4ncccn4)cc3)CC2)C1 [SCH772984] (first compound max 10 µM, 7x7, partner max 5 µM) yielded combination Emax of 1

###

Tested on: COLO-668 (Small Cell Lung Carcinoma)
Assay Method Text: combination Emax (second highest fraction inhibited in the dose matrix, 72 h); higher = more inhibition; extreme values may be limits of the assay
Metric: combination Emax

// solved cases for combination Emax follow
N#Cc1cnc(Nc2cc(NC[C@H]3CNCCO3)c(C(F)(F)F)cn2)cn1 [SRA737] + O=c1[nH]cc(F)c(=O)[nH]1 [5-Fluorouracil] (first compound max 10 µM, 7x7, partner max 20 µM)
0.483
C[C@@H]1COCCN1c1cc(C2([S@](C)(=N)=O)CC2)nc(-c2ccnc3[nH]ccc23)n1 [AZD6738] + O=C(c1cc(Cc2n[nH]c(=O)c3ccccc23)ccc1F)N1CCN(C(=O)C2CC2)CC1 [Olaparib] (first compound max 10 µM, 7x7, partner max 10 µM)
0.659
Cc1cc2ncnn2cc1Nc1ncc2c(n1)n(C1CCOCC1)c(=O)n2C [AZD7648] + C[C@@H]1COCCN1C2=NC(=NC(=C2)C3(CC3)[S@](=N)(=O)C)C4=C5C=CNC5=NC=C4 [AZD6738] (first compound max 10 µM, 7x7, partner max 10 µM)
0.579

Let us move to another entry and its combination Emax.
// CC1(C)CCC(CN2CCN(c3ccc(C(=O)NS(=O)(=O)c4ccc(NCC5CCOCC5)c([N+](=O)[O-])c4)c(Oc4cnc5[nH]ccc5c4)c3)CC2)=C(c2ccc(Cl)cc2)C1 [Venetoclax] + CS(=O)(=O)CCNCc1ccc(-c2ccc3ncnc(Nc4ccc(OCc5cccc(F)c5)c(Cl)c4)c3c2)o1 [Lapatinib] (first compound max 1 µM, 7x7, partner max 10 µM) : combination Emax value = 0.282
